# System: UCD52 (cells of a triple-negative basal-like breast cancer xenograft)
# measurement_description: cell viability of combination (% of vehicle); higher = less cytotoxic
# condition_set: 1 µM; 72 h; partner dose: 10 nM
experimental_endpoint: cell viability of combination
Keep it simple and answer with nothing but the number.

1. Cl.OC(CNCC(O)C1CCc2cc(F)ccc2O1)C1CCc2cc(F)ccc2O1 (stereo not drawn) [Nebivolol] + CC(C)C[C@H](NC(=O)[C@H](CCc1ccccc1)NC(=O)CN1CCOCC1)C(=O)N[C@@H](Cc1ccccc1)C(=O)N[C@@H](CC(C)C)C(=O)[C@@]1(C)CO1 ... 64.3

**Q:** Test system UCD52; read-out cell viability of combination; what value for Cc1ccc(C(=O)N(CCCN)C(c2nc3cc(Cl)ccc3c(=O)n2Cc2ccccc2)C(C)C)cc1 (stereo not drawn) + CC(C)C[C@H](NC(=O)[C@H](CCc1ccccc1)NC(=O)CN1CCOCC1)C(=O)N[C@@H](Cc1ccccc1)C(=O)N[C@@H](CC(C)C)C(=O)[C@@]1(C)CO1 ?
**A:** 42.9

**Q:** // query: CCCSc1nc(NC2CC2c2ccc(F)c(F)c2)c2nnn(C3CC(OCCO)C(O)C3O)c2n1 (stereo not drawn) [Ticagrelor] + CC(C)C[C@H](NC(=O)[C@H](CCc1ccccc1)NC(=O)CN1CCOCC1)C(=O)N[C@@H](Cc1ccccc1)C(=O)N[C@@H](CC(C)C)C(=O)[C@@]1(C)CO1
**A:** 54.3

---

Listed below: cell viability of combination values for each entry.
# System: UCD52
# measurement_description: cell viability of combination (% of vehicle); higher = less cytotoxic
# condition_set: 1 µM; 72 h; partner dose: 10 nM

1) COc1cc2c(Nc3ccc(Br)cc3F)ncnc2cc1OCC1CCN(C)CC1 [Vandetanib (ZD6474)] + CN(C)C/C=C/C(=O)Nc1cc2c(Nc3ccc(F)c(Cl)c3)ncnc2cc1O[C@H]1CCOC1 ... 36.2
2) Clc1ccc(C(Cn2ccnc2)OCc2ccc(Sc3ccccc3)cc2)c(Cl)c1.O=[N+]([O-])O (centres undefined) [Fenticonazole Nitrate] + CN(C)C/C=C/C(=O)Nc1cc2c(Nc3ccc(F)c(Cl)c3)ncnc2cc1O[C@H]1CCOC1 ... 59.9

**Q:** Test system UCD52; read-out cell viability of combination; what value for CC(NCCCc1cccc(C(F)(F)F)c1)c1cccc2ccccc12 (centres undefined) [Cinacalcet] + CN(C)C/C=C/C(=O)Nc1cc2c(Nc3ccc(F)c(Cl)c3)ncnc2cc1O[C@H]1CCOC1 ?
**A:** 59.9

**Q:** // query: Cc1c(Cl)cccc1Nc1ccccc1C(=O)O [Tolfenamic Acid] + CN(C)C/C=C/C(=O)Nc1cc2c(Nc3ccc(F)c(Cl)c3)ncnc2cc1O[C@H]1CCOC1
**A:** 78.5

---

# Tested on: HCI01 (cells of a triple-negative basal-like breast cancer xenograft)
# measurement_description: cell viability of combination (% of vehicle); higher = less cytotoxic
# condition_set: 1 µM; 72 h; partner dose: 10 nM
experimental_endpoint: cell viability of combination
Keep it simple and answer with nothing but the number.

Here are 5 compounds together with their reported answers.
1. CCC(=C(c1ccccc1)c1ccc(OCCN(C)C)cc1)c1ccccc1.O=C(O)CC(O)(CC(=O)O)C(=O)O [Tamoxifen Citrate] + CN(C)C/C=C/C(=O)Nc1cc2c(Nc3ccc(F)c(Cl)c3)ncnc2cc1O[C@H]1CCOC1 ... 65
2. CNCCCC12CCC(c3ccccc31)c1ccccc12.Cl [Maprotiline HCl] + CN(C)C/C=C/C(=O)Nc1cc2c(Nc3ccc(F)c(Cl)c3)ncnc2cc1O[C@H]1CCOC1 ... 55.1
3. CCc1c(Cl)c(O)c(Cl)c(O)c1C(=O)OC1C(C)OC(OCC2=CC=CCC(O)C(C)=CC(CC)C(OC3OC(C)(C)C(OC(=O)C(C)C)C(O)C3O)C(C)=CC(C)=CCC(C(C)O)OC2=O)C(OC)C1O (stereo not given) [Fidaxomicin] + CN(C)C/C=C/C(=O)Nc1cc2c(Nc3ccc(F)c(Cl)c3)ncnc2cc1O[C@H]1CCOC1 ... 56.2
4. C1=C\COCc2cc(ccc2OCCN2CCCC2)Nc2nccc(n2)-c2cccc(c2)COC/1 [Pacritinib] + CN(C)C/C=C/C(=O)Nc1cc2c(Nc3ccc(F)c(Cl)c3)ncnc2cc1O[C@H]1CCOC1 ... 37.8
5. CC1(C)Cc2c(-c3ccccc3)c(-c3ccc(Cl)cc3)c(CC(=O)O)n2C1 [Licofelone] + CN(C)C/C=C/C(=O)Nc1cc2c(Nc3ccc(F)c(Cl)c3)ncnc2cc1O[C@H]1CCOC1 ... 66.1

**Q:** What measured cell viability of combination goes with Cc1c(-c2ccc(O)cc2)n(Cc2ccc(OCCN3CCCCCC3)cc2)c2ccc(O)cc12.Cl [Bazedoxifene HCl] + CN(C)C/C=C/C(=O)Nc1cc2c(Nc3ccc(F)c(Cl)c3)ncnc2cc1O[C@H]1CCOC1 ?
**A:** 64.6

**Q:** // query: COc1ccc(CN2CCN(C(c3ccc(F)cc3)c3ccc(F)cc3)CC2)c(OC)c1OC.Cl.Cl [Lomerizine HCl] + CN(C)C/C=C/C(=O)Nc1cc2c(Nc3ccc(F)c(Cl)c3)ncnc2cc1O[C@H]1CCOC1
**A:** 57.7

---

Listed below: cell viability values for each entry.
# Tested on: UCD52
# measurement_description: cell viability (% of vehicle); higher = less cytotoxic
# condition_set: 10 µM; 72 h
Keep it simple and answer with nothing but the number.

Here are 3 compounds together with their reported answers.
1. CON=C(C(=O)NC1C(=O)N2C(C(=O)O)=C(CSC(=O)c3ccco3)CSC12)c1csc(N)n1.Cl (centres undefined) [Ceftiofur HCl] ... 103
2. Cl.O=C1NCC2(CCN(CCc3ccccc3)CC2)O1 [Fenspiride HCl] ... 99.1
3. C=C1C(=CC=C2CCCC3(C)C2CCC3C(C)CCCC(C)C)CC(O)CC1O (centres undefined) ... 68.1

**Q:** What measured cell viability goes with CC12CCC(=O)C=C1CCC1C2C(O)CC2(C)C1CCC2(O)C(=O)CO (centres undefined) [Hydrocortisone] ?
**A:** 124

---

# Tested on: HCI01
# measurement_description: cell viability (% of vehicle); higher = less cytotoxic
# condition_set: 10 µM; 72 h
Threshold check on cell viability: strictly below 100 is YES; on or above 100 is NO.

**Q:** Quick check: cell viability of CNC1CCC(c2ccc(Cl)c(Cl)c2)c2ccccc21.Cl (configuration not stated) [Sertraline HCl] under 100?
**A:** YES

**Q:** // query: CCC1OC(=O)C(C)C(OC2CC(C)(OC)C(O)C(C)O2)C(C)C(OC2OC(C)CC(N(C)C)C2O)C(C)(O)CC(C)CN(C)C(C)C(O)C1(C)O (configuration not stated)
**A:** NO

**Q:** // query: O=C(Nc1cccc2c(=O)cc(-c3nn[nH]n3)oc12)c1ccc(OCCCCc2ccccc2)cc1
**A:** YES

**Q:** // query: COc1cc2c(cc1Cc1cccc(Cl)c1F)c(=O)c(C(=O)O)cn2C(CO)C(C)C (configuration not stated)
**A:** NO

---

# Tested on: HCI01
# measurement_description: cell viability (% of vehicle); higher = less cytotoxic
# condition_set: 10 µM; 72 h
Counter-ions that a name gives are not always drawn.
Threshold check on cell viability: strictly below 100 is Condition met; on or above 100 is Condition not met.

**Q:** Quick check: cell viability of CN(CC=CC#CC(C)(C)C)Cc1cccc2ccccc12.Cl [Terbinafine HCl] under 100?
**A:** Condition met

**Q:** // query: CCOC(=O)C1=CC(OC(CC)CC)C(NC(C)=O)C(N)C1 (stereo unspecified) [Oseltamivir]
**A:** Condition not met

**Q:** // query: O=C1OC(C(O)CO)C([O-])=C1O.[Na+] (stereo unspecified) [Sodium ascorbate]
**A:** Condition met

**Q:** // query: O=CC(O)C(O)C(O)CO (stereo unspecified) [Xylose]
**A:** Condition met

**Q:** // query: CC(C)[N+]1(C)C2CCC1CC(OC(=O)C(CO)c1ccccc1)C2.[Br-] (stereo unspecified) [Ipratropium Bromide]
**A:** Condition not met

**Q:** // query: CSc1ccc2c(c1)N(CCC1CCCCN1C)c1ccccc1S2.Cl (stereo unspecified) [Thioridazine HCl]
**A:** Condition met

**Q:** // query: CCC(CC)C(NC(C)=O)C1C(N=C(N)N)CC(C(=O)O)C1O (stereo unspecified) [Peramivir]
**A:** Condition not met

**Q:** // query: Nc1ccn([C@@H]2O[C@H](CO)[C@@H](O)C2(F)F)c(=O)n1 [Gemcitabine HCl]
**A:** Condition met

**Q:** // query: CS(=O)(=O)O.Cc1c(O)cccc1C(=O)NC(CSc1ccccc1)C(O)CN1CC2CCCCC2CC1C(=O)NC(C)(C)C (stereo unspecified) [Nelfinavir Mesylate]
**A:** Condition met

**Q:** // query: C=C1C(=CC=C2CCCC3(C)C2CCC3C(C)CCCC(C)(C)O)CC(O)CC1O (stereo unspecified) [Calcitriol]
**A:** Condition met

**Q:** // query: COc1cc2c(cc1OC)C(=O)C(CC1CCN(Cc3ccccc3)CC1)C2.Cl (stereo unspecified) [Donepezil HCl]
**A:** Condition not met

**Q:** // query: CC(=O)OCC(=O)C1(O)C(C)CC2C3CCC4=CC(=O)C=CC4(C)C3(F)C(O)CC21C (stereo unspecified) [Dexamethasone acetate]
**A:** Condition not met
